# Tested on: OVCAR-8 ovarian
# Assay Name: NCI tumour cell line growth inhibition, 48 h
I'd be grateful if you could share measured TGI for these entries.

Items follow; give TGI for each.
1. CCOC(CNCCC(=O)OC)OCC
2. CC(C)(C)OC(=O)NCCC(N)=S
3. COc1c(O)c2c3c(c(C)cc(O)c3c1O)C(=O)C(O)(C(C)(C)C(C)=O)C2=O (stereo unspecified)
4. CC(C)=C1CCC(CN(C)C)C1=O (stereo unspecified)
5. CCOP(=O)(OCC)C(C(=O)OC)C(=O)C(=O)Nc1ccc(Cl)cc1Cl (stereo unspecified)

Outgoing:
> 10 µM
> 100 µM
> 100 µM
49.4 µM
> 100 µM

Please state TGI for every compound in the list that follows.
1. Nc1ccccc1O.O.O=C(O)C1[O][Sb][O]C1C(=O)O (stereo unspecified)
2. COc1cc2c(/C=N\N=C(N)N)c[nH]c2cc1C
3. COc1ccc(C(CC(=O)c2ccc3c(c2)OCO3)c2c(O)c3ccccc3oc2=O)cc1OC (stereo unspecified)
4. ClC(Cl)=C1C(=C(Cl)Cl)C(Cl)(Cl)C1(Cl)Cl
5. Cc1cc(Nc2nc(-c3cn(-c4ccc(Cl)cc4)nn3)nc3ccccc23)n[nH]1
6. O=[N+]([O-])c1cccc(C2=NOC(C3CCCCC3)C2)c1 (stereo unspecified)

Outgoing:
1. 32.9 µM
2. > 100 µM
3. > 100 µM
4. 18.7 µM
5. > 50 µM
6. > 100 µM
